assay: Human HepG2 cell viability assay in 384 well format; type: toxicity, cell-based; set-up: dose 125 nL, time 70.5 hour; concentration not given beside the values; conditions: HepG2 cells, read-out: Inhibition
readoutLabel: cytotoxicity at 70.5 h
Remember to follow the number with its unit.

Task: Look up cytotoxicity at 70.5 h: `Cc1cc(NC(=O)CNC(C)(C)c2ccccc2)on1`
Result: 17.8%

Task: Record request: cytotoxicity at 70.5 h value, item c1ncn(CC2CCCN(Cc3noc(C4CC4)n3)C2)n1 (configuration not stated)
Result: -12.6%

Task: Look up cytotoxicity at 70.5 h for this compound: CC(C)c1nc(N2CC(N3CCCCC3C)C2)c2cnn(C)c2n1 (configuration not stated)
Result: 12%

Task: Entry Fc1cccc(CN2CCC3(CCN3c3ncccn3)C2)c1 (configuration not stated) : reported cytotoxicity at 70.5 h = ?
Result: -8.53%

Task: Request the reported cytotoxicity at 70.5 h associated with Cc1ccc(C(=O)NC2CCCN(CC(N)=O)C2)c(=O)[nH]1 (configuration not stated)
Result: -7.85%

Task: // cytotoxicity at 70.5 h lookup, key: `Cc1ccc(CN2CCC3(CCN(Cc4ccncc4)CC3)CC2)cc1`
Result: -3.02%

Task: Request the reported cytotoxicity at 70.5 h associated with `CCN(C)C(=O)Cn1c(-c2ccco2)nn(-c2ccccc2OC)c1=O`
Result: 0.98%

Task: Consider the compound shown here: Cn1cccc1C(=O)N1CCCC1c1ccc(CN2CCOCC2)cn1 (configuration not stated) What is its recorded cytotoxicity at 70.5 h?
Result: -1.35%

Task: State the recorded cytotoxicity at 70.5 h for this entry: `O=C(c1ccoc1)N1CCC2(C1)CN(c1nccs1)C2`
Result: -2.55%

Task: Which cytotoxicity at 70.5 h value is on record for `CCN(Cc1cccc2c1OCO2)C(=O)Nc1cn[nH]c1` ?
Result: -5.23%

Task: // lookup cytotoxicity at 70.5 h for `CN1CCN(c2ncnc3c2CCN(c2ncc(F)cn2)CC3)CC1`
Result: -1.02%

Task: What value of measured cytotoxicity at 70.5 h is listed for `O=C(NCCc1ccccn1)C1(n2cnnn2)CCCCC1` ?
Result: 14.5%

###

assay: Human HepG2 cell viability assay in 384 well format; type: toxicity, cell-based; parameters: dose 125 nL, time 70.5 hour; concentration not given beside the values; conditions: HepG2 cells, read-out: Inhibition
readoutLabel: cytotoxicity at 70.5 h (%)
Entry rule: numbers only, all in %.

Task: Which cytotoxicity at 70.5 h value is on record for Cn1cc(CN2CCCC(O)C2)c(-c2ccccc2F)n1 (stereo unspecified) ?
Result: -6.51

Task: Endpoint output: cytotoxicity at 70.5 h of CCOCC(O)CNc1cncc(Br)c1 (stereo unspecified) . Value?
Result: -1.77

Task: Returns the measured cytotoxicity at 70.5 h for the input compound. Input: Cc1nc(CCNC(=O)NC2CCCc3c2cnn3CCO)cs1 (stereo unspecified)
Result: -9.35

Task: Quick one: cytotoxicity at 70.5 h of `FC(F)(F)c1nnc2n1CCN(c1nc(C3CC3)ns1)C2` ?
Result: -1.08

Task: What does the record list as cytotoxicity at 70.5 h for `O=C(c1cc2ccccc2[nH]1)N1CCC(Nc2cccnn2)CC1` ?
Result: -6.88

Task: Find the recorded cytotoxicity at 70.5 h belonging to CCCc1nnsc1C(=O)NCC(O)c1ccc(SC)cc1 (stereo unspecified) and report it.
Result: 28.8

Task: Tell me the measured cytotoxicity at 70.5 h of `CO[C@H]1C[C@@H]2CN(C(=O)c3cc4cccc(F)c4[nH]3)C[C@@H]2C1` , please.
Result: -6.67

Task: Name the recorded cytotoxicity at 70.5 h for CC(=O)N1CCCC1c1ccc(C(=O)N2CCOCC2)s1 (stereo unspecified) .
Result: 14.5

Task: cytotoxicity at 70.5 h for Nc1nccnc1C1CN(C(=O)c2cnccn2)CCO1 (stereo unspecified) ?
Result: -4.25

Task: GET /values?readout=cytotoxicity at 70.5 h&item= `CCn1ncc(C(=O)NCCc2nc(-c3ccc(C)cc3)n[nH]2)c1C`
Result: -0.645

Task: // lookup cytotoxicity at 70.5 h for `C[C@@H]1CN(C2(C(=O)N3CCOCC3)Cc3ccccc3C2)C[C@H](C)O1`
Result: 2.82
